- System: MIA PaCa-2
- ASSAY_PROCEDURE: Inhibitory concentration of the compound was determined against MiaPaCa2 cell line
- Type: functional, cell-based
- SETTINGS: Homo sapiens
pIC50: −log10 of the molar value.
Short version: pIC50 at least 5 is TRUE, less is FALSE.

Task item: In plain terms: is recorded pIC50 at least 5 for `O=C(CCC1CCCC1)N(O)c1ccc(Cl)cc1` ?
Reply: TRUE

Task item: Can you handle `O=C(C1CCCCC1)N(O)c1ccc(Cl)cc1` next?
Reply: FALSE

Task item: Can you handle `O=C(C1CC1)N(O)c1ccc(Cl)cc1` next?
Reply: FALSE

Task item: Can you handle `O=C(CC1CCCCC1)N(O)c1ccccc1` next?
Reply: FALSE

Task item: Can you handle `O=C(N(O)c1ccc(Cl)cc1)C12CC3CC(CC(C3)C1)C2` next?
Reply: FALSE

---

- Tested on: Cell line
- ASSAY_PROCEDURE: Cytotoxic concentration required to reduce cell growth by 50%
- Format: functional
- SETTINGS: Homo sapiens
READOUT_KIND: CC50 (µg/mL)
Numbers only here, please. The scale is µg/mL.

Task item: Consider the compound `Nc1ccn(C[C@@H](CO)OCP(=O)(O)O)c(=O)n1.O.O` and give its measured CC50.
Reply: 24

Task item: Can you handle `O=C(CC1CCCCC1)N(O)c1ccc(Cl)cc1` next?
Reply: 129

Task item: Can you handle `O=C(C1CCCCC1)N(O)c1ccc(Cl)cc1` next?
Reply: 28

Task item: Can you handle `O=C(CCC1CCCC1)N(O)c1ccc(Cl)cc1` next?
Reply: 20

Task item: Can you handle `O=C(CCC1CCCCC1)N(O)c1ccc(Cl)cc1` next?
Reply: 4.7

Task item: Can you handle `O=C(C1CC1)N(O)c1ccc(Cl)cc1` next?
Reply: 37

---

- Test system: SW-620
- ASSAY_PROCEDURE: Inhibitory concentration of the compound was determined against SW6 20 cell line
- Format: functional, cell-based
- SETTINGS: Homo sapiens
I'd appreciate it if you could supply pIC50 values for the items below.
Just so you know, pIC50 here is -log10 of the concentration in molar units; reply with that number alone.

Task item: Consider the compound `O=C(CCC1CCCC1)N(O)c1ccc(Cl)cc1` and give its measured pIC50.
Reply: 5.00

Task item: Can you handle `O=C(C1CC1)N(O)c1ccc(Cl)cc1` next?
Reply: 4.22

Task item: Can you handle `O=C(CC1CCCCC1)N(O)c1ccccc1` next?
Reply: 4.70

Task item: Can you handle `O=C(CC1CCCCC1)N(O)c1ccc(Cl)cc1` next?
Reply: 5.05

Task item: Can you handle `O=C(CCC1CCCCC1)N(O)c1ccc(Cl)cc1` next?
Reply: 4.70

Task item: Can you handle `O=C(C1CCCCC1)N(O)c1ccc(Cl)cc1` next?
Reply: 5.00

---

- Tested on: L1210
- ASSAY_PROCEDURE: Inhibitory concentration of the compound was determined against L1210 cell line
- Assay type: functional, cell-based
- SETTINGS: Mus musculus
I'd appreciate it if you could supply pIC50 values for the items below.
Just so you know, pIC50 here is -log10 of the concentration in molar units; reply with that number alone.

Task item: Consider the molecule `O=C(CC1CCCCC1)N(O)c1ccccc1` and give its measured pIC50.
Reply: 4.57

Task item: Can you handle `O=C(C1CCCCC1)N(O)c1ccc(Cl)cc1` next?
Reply: 4.80

Task item: Can you handle `O=C(CC1CCCCC1)N(O)c1ccc(Cl)cc1` next?
Reply: 4.59

Task item: Can you handle `O=C(CCC1CCCCC1)N(O)c1ccc(Cl)cc1` next?
Reply: 4.68

Task item: Can you handle `O=C(CCC1CCCC1)N(O)c1ccc(Cl)cc1` next?
Reply: 4.42

Task item: Can you handle `O=C(N(O)c1ccc(Cl)cc1)C12CC3CC(CC(C3)C1)C2` next?
Reply: 3.54

---

- Test system: Cytomegalovirus
- ASSAY_PROCEDURE: Effective concentration against AD-169 strain of CMV virus expressed in HEL cells
- Type: functional, organism-based
- SETTINGS: Human betaherpesvirus 5, HEL
READOUT_KIND: EC50 (mg/L)
Numbers only here, please. The scale is mg/L.

Task item: Consider the molecule `O=C(CC1CCCCC1)N(O)c1ccc(Cl)cc1` and give its measured EC50.
Reply: 7.3

Task item: Can you handle `O=C(CCC1CCCCC1)N(O)c1ccc(Cl)cc1` next?
Reply: 1.5

This collection of values is drawn from ChEMBL document CHEMBL1145184.
